Give measured pKd for each item. Keep answers brief.
Tested system: T1, His-tagged human HtrA1 protease domain (human, UniProt Q92743 161-367)
T1 construct: His-tagged protease domain; also called huHtrA1-PD-His; huHtrA1-PD
T1 sequence (Q92743 other isoform, or with tags, fused parts or gaps limits assumed): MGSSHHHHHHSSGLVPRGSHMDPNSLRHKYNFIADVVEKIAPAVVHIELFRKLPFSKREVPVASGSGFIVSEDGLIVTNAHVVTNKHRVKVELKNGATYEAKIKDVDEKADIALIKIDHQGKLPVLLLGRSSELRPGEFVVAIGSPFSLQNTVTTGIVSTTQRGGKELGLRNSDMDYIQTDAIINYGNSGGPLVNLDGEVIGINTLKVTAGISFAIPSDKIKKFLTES
Experimental protocol: SPR (BIACORE T200), huHtrA1-PD-His captured by anti-His, Fab injected
Numbers only, as −log10 of the molar value.

>  <Binder>
combination mutant LC4.HC1 Fab (Fab, V domains shown, Fab) VH: EVQLVQSGAEVKKPGASVKVSCKASGYTFKDSEMHWVRQAPGQGLEWIGGVDPETDGAAYNQKFKGRATITRDTSTSTAYLELSSLRSEDTAVYYCTRGYDYDYALDYWGQGTLVTVSS VL: DIQMTQSPSSLSASVGDRVTITCRASSSVNFIHWYQQKPGKAPKPLISATSHLASGVPSRFSGSGSGTDFTLTISSLQPEDFATYYCQQWSSNPWTFGQGTKVEIK

>  <Metric>
pKd

>  <Assay result>
9.07

$$$$
>  <Binder>
combination mutant LC3.HC3 Fab (Fab, V domains shown, Fab) VH: EVQLVQSGAEVKKPGASVKVSCKASGYKFTDSEMHWVRQAPGQGLEWIGGVDPETDGAAYNQKFKGRATITRDTSTSTAYLELSSLRSEDTAVYYCTRGYDYDYALDYWGQGTLVTVSS VL: DIQMTQSPSSLSASVGDRVTITCRASSSVEFIHWYQQKPGKAPKPLISATSNLASGVPSRFSGSGSGTDFTLTISSLQPEDFATYYCQQWSSNPWTFGQGTKVEIK

>  <Metric>
pKd

>  <Assay result>
10.21

$$$$
>  <Binder>
combination mutant LC7.HC3 Fab (Fab, V domains shown, Fab) VH: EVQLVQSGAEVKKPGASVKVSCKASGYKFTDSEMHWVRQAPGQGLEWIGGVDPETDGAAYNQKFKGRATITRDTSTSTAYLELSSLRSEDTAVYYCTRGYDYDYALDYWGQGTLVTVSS VL: DIQMTQSPSSLSASVGDRVTITCRASSSVNFIHWYQQKPGKAPKPLISATSNLASGVPSRFSGSGSGTDFTLTISSLQPEDFATYYCQQWYSNPWTFGQGTKVEIK

>  <Metric>
pKd

>  <Assay result>
9.47

$$$$

Below: the item to evaluate.
-- ask Consider the binder combination mutant LC3.HC1 Fab (Fab, V domains shown, Fab) VH: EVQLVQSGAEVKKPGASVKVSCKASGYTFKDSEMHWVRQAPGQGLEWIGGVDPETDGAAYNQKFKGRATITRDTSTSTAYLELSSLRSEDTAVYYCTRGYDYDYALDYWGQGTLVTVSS VL: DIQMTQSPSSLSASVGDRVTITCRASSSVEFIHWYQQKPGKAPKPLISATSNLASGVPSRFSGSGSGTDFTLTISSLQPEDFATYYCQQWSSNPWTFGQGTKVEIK and give its recorded pKd.
-- reply 10.05
